# Test system: IL-12
# Assay Explanation: IL-12 production from macrophages induced through administration (Example 9, Table 1)
# Format: in vivo, DBA/2 mice
# Condition Details: LPS 100 ng/ml, IFNγ 100 units/ml
Could you please mark Met for values of IL-12, amount produced relative to that of control group below 10% and Not met for values at or above it?

Worked cases, answers included:
COC(=O)[C@H](CSSC[C@H](NC(C)=O)C(=O)OC)NC(C)=O    Not met
C[C@@H]1C[C@H]2[C@@H]3CCC4=CC(=O)C=C[C@]4(C)[C@@]3(F)[C@@H](O)C[C@]2(C)[C@@]1(O)C(=O)CO [Dexamethasone, dexamethasone, reference compound]    Met
CC(=O)O[C@H]1C=CC=C2C[C@]34SS[C@](CO)(C(=O)N3[C@@H]21)N(C)C4=O    Not met

Problem: Given CC(=O)N[C@@H](CS)C(=O)O [NAC, N-acetylcysteine, reference compound] , is recorded IL-12, amount produced relative to that of control group strictly lower than 10%?
Result: Not met

Problem: Given `CC(=O)N[C@@H](CSSC[C@H](NC(C)=O)C(=O)O)C(=O)O` , is recorded IL-12, amount produced relative to that of control group strictly lower than 10%?
Result: Not met
